I'd be grateful if you could share measured IC50 for these entries.
# testTarget: L-lactate dehydrogenase (Plasmodium falciparum (isolate CDC / Honduras))
# Sequence (Q27743 whole entry): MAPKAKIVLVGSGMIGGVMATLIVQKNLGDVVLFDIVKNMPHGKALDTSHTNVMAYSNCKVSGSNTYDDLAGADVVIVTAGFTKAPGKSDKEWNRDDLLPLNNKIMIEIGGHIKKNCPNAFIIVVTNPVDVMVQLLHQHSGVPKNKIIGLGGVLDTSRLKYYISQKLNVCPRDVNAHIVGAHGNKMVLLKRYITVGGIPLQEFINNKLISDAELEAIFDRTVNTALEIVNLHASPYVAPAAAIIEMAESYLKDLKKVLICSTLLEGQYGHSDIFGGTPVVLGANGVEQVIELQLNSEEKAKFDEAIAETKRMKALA
# experiment: Lactate Dehydrogenase Inhibition Assay
# details: pH 7.5; 25 °C

L-lactate dehydrogenase (Plasmodium falciparum (isolate CDC / Honduras)) IC50 of `Cc1o[nH]c(=O)c1C(=O)O` is > 100 µM

L-lactate dehydrogenase (Plasmodium falciparum (isolate CDC / Honduras)) IC50 of `CCOC(=O)c1c[nH]oc1=O` is > 100 µM

L-lactate dehydrogenase (Plasmodium falciparum (isolate CDC / Honduras)) IC50 of `O=C(O)c1nsnc1O` is 0.14 µM

L-lactate dehydrogenase (Plasmodium falciparum (isolate CDC / Honduras)) IC50 of `O=C(O)c1c(O)nnn1Cc1ccccc1` is > 100 µM

L-lactate dehydrogenase (Plasmodium falciparum (isolate CDC / Honduras)) IC50 of `Cn1nc(O)c(C(=O)O)n1` is > 100 µM

L-lactate dehydrogenase (Plasmodium falciparum (isolate CDC / Honduras)) IC50 of `O=C(O)c1nonc1O` is 0.65 µM

L-lactate dehydrogenase (Plasmodium falciparum (isolate CDC / Honduras)) IC50 of O=C(O)c1cnn[nH]1 [1H-1,2,3-triazole-5-carboxylic acid] is 98 µM

L-lactate dehydrogenase (Plasmodium falciparum (isolate CDC / Honduras)) IC50 of O=C(O)c1cnon1 [1,2,5-oxadiazole-3-carboxylic acid] is > 200 µM

L-lactate dehydrogenase (Plasmodium falciparum (isolate CDC / Honduras)) IC50 of `O=C(O)Cc1no[nH]c1=O` is > 200 µM

L-lactate dehydrogenase (Plasmodium falciparum (isolate CDC / Honduras)) IC50 of `CCOC(=O)c1co[nH]c1=O` is > 100 µM

L-lactate dehydrogenase (Plasmodium falciparum (isolate CDC / Honduras)) IC50 of COc1nocc1C(=O)O [3-methoxy-1,2-oxazole-4-carboxylic acid] is > 100 µM

L-lactate dehydrogenase (Plasmodium falciparum (isolate CDC / Honduras)) IC50 of `CCOC(=O)c1nonc1OCc1ccc(OC)cc1` is > 200 µM

L-lactate dehydrogenase (Plasmodium falciparum (isolate CDC / Honduras)) IC50 of `Cn1occ(C(=O)O)c1=O` is > 100 µM

L-lactate dehydrogenase (Plasmodium falciparum (isolate CDC / Honduras)) IC50 of `Nc1nonc1C(=O)O` is > 200 µM

L-lactate dehydrogenase (Plasmodium falciparum (isolate CDC / Honduras)) IC50 of `O=C(O)c1nonc1OC/C=C/c1ccccc1` is > 200 µM

L-lactate dehydrogenase (Plasmodium falciparum (isolate CDC / Honduras)) IC50 of O=C(O)c1nocc1O [4-hydroxy-1,2-oxazole-3-carboxylic acid] is 16 µM

L-lactate dehydrogenase (Plasmodium falciparum (isolate CDC / Honduras)) IC50 of `O=C(OCc1ccc(Cl)c(Cl)c1)c1no[nH]c1=O` is > 200 µM

L-lactate dehydrogenase (Plasmodium falciparum (isolate CDC / Honduras)) IC50 of `O=C(O)c1nn(Cc2ccccc2)[nH]c1=O` is > 100 µM

L-lactate dehydrogenase (Plasmodium falciparum (isolate CDC / Honduras)) IC50 of `O=C(O)c1nonc1NCCO` is > 200 µM

L-lactate dehydrogenase (Plasmodium falciparum (isolate CDC / Honduras)) IC50 of `CCOC(=O)c1nonc1O` is > 100 µM

L-lactate dehydrogenase (Plasmodium falciparum (isolate CDC / Honduras)) IC50 of `Cn1nnc(O)c1C(=O)O` is > 100 µM

L-lactate dehydrogenase (Plasmodium falciparum (isolate CDC / Honduras)) IC50 of O=C(O)c1conc1O [3-hydroxy-1,2-oxazole-4-carboxylic acid] is 1.1 µM

L-lactate dehydrogenase (Plasmodium falciparum (isolate CDC / Honduras)) IC50 of `O=C(O)c1noc(C(=O)O)c1O` is 81 µM

L-lactate dehydrogenase (Plasmodium falciparum (isolate CDC / Honduras)) IC50 of `COC(=O)c1c(C)[nH]oc1=O` is > 100 µM

L-lactate dehydrogenase (Plasmodium falciparum (isolate CDC / Honduras)) IC50 of `Nc1nsnc1C(=O)O` is > 100 µM

L-lactate dehydrogenase (Plasmodium falciparum (isolate CDC / Honduras)) IC50 of `COc1nsnc1C(=O)O` is > 100 µM
